molecular target: UniProt:P47900; experiment: Agonist activity at human cloned P2Y1 receptor expressed in human 1321N1 by FLIPR assay
Sequence (P47900 whole entry): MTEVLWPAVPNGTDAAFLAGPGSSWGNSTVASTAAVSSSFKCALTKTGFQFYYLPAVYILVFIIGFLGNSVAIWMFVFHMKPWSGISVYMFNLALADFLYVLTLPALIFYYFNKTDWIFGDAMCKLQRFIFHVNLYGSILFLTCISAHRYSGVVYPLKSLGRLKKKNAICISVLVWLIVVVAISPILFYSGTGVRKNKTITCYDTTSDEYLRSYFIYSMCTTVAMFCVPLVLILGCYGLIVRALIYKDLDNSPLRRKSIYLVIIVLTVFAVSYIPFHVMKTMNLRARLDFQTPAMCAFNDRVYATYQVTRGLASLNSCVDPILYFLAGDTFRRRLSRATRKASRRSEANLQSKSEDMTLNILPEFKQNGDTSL
pEC50: −log10 of the molar value.
readout: pEC50

compound="O=c1ccn([C@@H]2O[C@H](COP(=O)(O)OP(=O)(O)OP(=O)(O)OP(=O)(O)OC[C@H]3O[C@@H](n4ccc(=O)[nH]c4=O)[C@H](O)[C@@H]3O)[C@@H](O)[C@H]2O)c(=O)[nH]1 [DIQUAFOSOL]" reported_value="< 4.70"

[Q] Returns the measured pEC50 for the input compound. Input: O=c1ccn([C@@H]2O[C@H](COP(=O)(O)OP(=O)(O)OP(=O)(O)O)[C@@H](O)[C@H]2O)c(=O)[nH]1 [URIDINE TRIPHOSPHATE]
[A] < 5.70

[Q] Returns the measured pEC50 for the input compound. Input: CSc1cc2ccn([C@@H]3O[C@H](COP(=O)(O)OP(=O)(O)OP(=O)(O)O)[C@@H](O)[C@H]3O)c(=O)c2cc1F
[A] < 4.70

----------
target: P2Y purinoceptor 2 (Homo sapiens, UniProt P41231); test: Agonist activity at human P2Y2 receptor expressed in human 1321N1 by FLIPR assay
Sequence (P41231 whole entry): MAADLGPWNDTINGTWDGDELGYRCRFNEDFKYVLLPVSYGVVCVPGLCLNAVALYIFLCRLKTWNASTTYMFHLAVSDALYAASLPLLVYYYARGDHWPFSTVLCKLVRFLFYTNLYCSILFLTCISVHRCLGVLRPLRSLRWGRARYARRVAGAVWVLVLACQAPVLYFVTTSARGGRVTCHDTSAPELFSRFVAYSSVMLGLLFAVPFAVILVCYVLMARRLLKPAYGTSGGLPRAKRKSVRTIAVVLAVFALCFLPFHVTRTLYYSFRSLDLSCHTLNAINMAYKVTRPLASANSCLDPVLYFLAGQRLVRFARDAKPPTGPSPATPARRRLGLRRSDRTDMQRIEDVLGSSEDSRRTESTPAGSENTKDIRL
readout: EC50 (nM)

structure_as_smiles=O=c1c2cc(Cl)ccc2ccn1[C@@H]1O[C@H](COP(=O)(O)OP(=O)(O)OP(=O)(O)O)[C@@H](O)[C@H]1O readout=EC50 reported_value=10

A = Cc1ccc2c(=O)n([C@@H]3O[C@H](COP(=O)(O)OP(=O)(O)OP(=O)(O)O)[C@@H](O)[C@H]3O)ccc2c1
B = CN(C)c1cc2ccn([C@@H]3O[C@H](COP(=O)(O)OP(=O)(O)OP(=O)(O)O)[C@@H](O)[C@H]3O)c(=O)c2cc1F
C = CSc1ccc2ccn([C@@H]3O[C@H](COP(=O)(O)OP(=O)(O)OP(=O)(O)O)[C@@H](O)[C@H]3O)c(=O)c2c1
[Q] Order the records by EC50, with each subsequent value no larger than the one before. Record the ranking as a list of labels in the requested order.
[A] C, A, B
(C: 140 nM, A: 35 nM, B: 4 nM)

----------
// reported EC50 for each item listed
biological target: P2Y purinoceptor 6 (Homo sapiens); assay: Agonist activity at human cloned P2Y6 receptor expressed in human 1321N1 by FLIPR assay
Sequence (Q15077 whole entry): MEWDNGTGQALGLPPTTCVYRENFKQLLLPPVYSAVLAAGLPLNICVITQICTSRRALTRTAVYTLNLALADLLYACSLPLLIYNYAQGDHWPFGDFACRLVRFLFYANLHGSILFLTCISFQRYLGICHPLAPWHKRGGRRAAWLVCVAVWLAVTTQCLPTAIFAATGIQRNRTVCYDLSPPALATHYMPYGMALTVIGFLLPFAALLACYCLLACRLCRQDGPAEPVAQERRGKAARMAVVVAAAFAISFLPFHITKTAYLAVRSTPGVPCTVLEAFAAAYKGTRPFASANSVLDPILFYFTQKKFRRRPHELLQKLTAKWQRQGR

[Q] Returns the measured EC50 for the input molecule. Input: O=c1ccn([C@@H]2O[C@H](COP(=O)(O)OP(=O)(O)OP(=O)(O)O)[C@@H](O)[C@H]2O)c(=O)[nH]1 [URIDINE TRIPHOSPHATE]
[A] 0.424 µM

[Q] Returns the measured EC50 for the input molecule. Input: O=c1c2cc(Cl)ccc2ccn1[C@@H]1O[C@H](COP(=O)(O)OP(=O)(O)OP(=O)(O)O)[C@@H](O)[C@H]1O
[A] > 20 µM

[Q] Returns the measured EC50 for the input molecule. Input: CSc1cc2ccn([C@@H]3O[C@H](COP(=O)(O)OP(=O)(O)OP(=O)(O)O)[C@@H](O)[C@H]3O)c(=O)c2cc1F
[A] > 20 µM

[Q] Returns the measured EC50 for the input molecule. Input: O=c1c2cc(F)ccc2ccn1[C@@H]1O[C@H](COP(=O)(O)OP(=O)(O)OP(=O)(O)O)[C@@H](O)[C@H]1O
[A] > 20 µM

[Q] Returns the measured EC50 for the input molecule. Input: O=c1c2ccccc2ccn1[C@@H]1O[C@H](COP(=O)(O)OP(=O)(O)OP(=O)(O)O)[C@@H](O)[C@H]1O
[A] > 20 µM

[Q] Returns the measured EC50 for the input molecule. Input: O=c1c2cc(F)c(F)cc2ccn1[C@@H]1O[C@H](COP(=O)(O)OP(=O)(O)OP(=O)(O)O)[C@@H](O)[C@H]1O
[A] > 20 µM

----------
target: P2Y purinoceptor 4 (Homo sapiens); test: Agonist activity at human cloned P2Y4 receptor expressed in human 1321N1 by FLIPR assay
Sequence (P51582 whole entry): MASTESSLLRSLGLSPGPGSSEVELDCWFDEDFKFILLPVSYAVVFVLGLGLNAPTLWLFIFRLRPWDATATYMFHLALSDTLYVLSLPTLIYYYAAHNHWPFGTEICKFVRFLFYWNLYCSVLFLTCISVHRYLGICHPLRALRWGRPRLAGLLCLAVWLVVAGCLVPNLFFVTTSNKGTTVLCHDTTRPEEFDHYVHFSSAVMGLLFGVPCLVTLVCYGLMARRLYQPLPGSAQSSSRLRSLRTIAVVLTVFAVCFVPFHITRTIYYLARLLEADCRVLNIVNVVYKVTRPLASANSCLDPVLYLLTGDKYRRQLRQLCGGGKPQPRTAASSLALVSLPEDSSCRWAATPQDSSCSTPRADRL
pEC50: −log10 of the molar value.
readout: pEC50

molecule="O=c1ccn([C@@H]2O[C@H](COP(=O)(O)OP(=O)(O)OP(=O)(O)O)[C@@H](O)[C@H]2O)c(=O)[nH]1 [URIDINE TRIPHOSPHATE]" reported_value=7.41

I = O=c1c2cc(Cl)ccc2ccn1[C@@H]1O[C@H](COP(=O)(O)OP(=O)(O)OP(=O)(O)O)[C@@H](O)[C@H]1O
II = O=c1c2ccccc2ccn1[C@@H]1O[C@H](COP(=O)(O)OP(=O)(O)OP(=O)(O)O)[C@@H](O)[C@H]1O
III = O=c1c2cc(F)ccc2ccn1[C@@H]1O[C@H](COP(=O)(O)OP(=O)(O)OP(=O)(O)O)[C@@H](O)[C@H]1O
[Q] Form: Sort by [pEC50] Order [ ascending ] Record the ranking as a list of labels in the requested order.
[A] I, II, III

----------
biological target: P2Y purinoceptor 2 (Homo sapiens, UniProt P41231); experiment: Agonist activity at human P2Y2 receptor expressed in human 1321N1 by FLIPR assay; format: functional
readout: EC50 (nM)

structure_as_smiles=O=c1c2ccc(Cl)cc2ccn1[C@@H]1O[C@H](COP(=O)(O)OP(=O)(O)OP(=O)(O)O)[C@@H](O)[C@H]1O readout=EC50 reported_value=541
structure_as_smiles=O=c1c2ccoc2ccn1[C@@H]1O[C@H](COP(=O)(O)OP(=O)(O)OP(=O)(O)O)[C@@H](O)[C@H]1O readout=EC50 reported_value=68
structure_as_smiles=CS(=O)(=O)c1ccc2ccn([C@@H]3O[C@H](COP(=O)(O)OP(=O)(O)OP(=O)(O)O)[C@@H](O)[C@H]3O)c(=O)c2c1 readout=EC50 reported_value=650

a = O=c1c2occc2ccn1[C@@H]1O[C@H](COP(=O)(O)OP(=O)(O)OP(=O)(O)O)[C@@H](O)[C@H]1O
b = N#Cc1ccc2c(=O)n([C@@H]3O[C@H](COP(=O)(O)OP(=O)(O)OP(=O)(O)O)[C@@H](O)[C@H]3O)ccc2c1
c = O=c1c2cc(F)ccc2ccn1[C@@H]1O[C@H](COP(=O)(O)OP(=O)(O)OP(=O)(O)O)[C@@H](O)[C@H]1O
d = O=c1c2cc(F)c(F)cc2ccn1[C@@H]1O[C@H](COP(=O)(O)OP(=O)(O)OP(=O)(O)O)[C@@H](O)[C@H]1O
e = O=c1c2ccsc2ccn1[C@@H]1O[C@H](COP(=O)(O)OP(=O)(O)OP(=O)(O)O)[C@@H](O)[C@H]1O
[Q] Order the records by EC50, with each subsequent value no larger than the one before. Record the ranking as a list of labels in the requested order.
[A] a, b, e, d, c
(a: 221 nM, b: 88 nM, e: 30 nM, d: 16 nM, c: 5 nM)

P = Cc1cccc2ccn([C@@H]3O[C@H](COP(=O)(O)OP(=O)(O)OP(=O)(O)O)[C@@H](O)[C@H]3O)c(=O)c12
Q = COc1cc2ccn([C@@H]3O[C@H](COP(=O)(O)OP(=O)(O)OP(=O)(O)O)[C@@H](O)[C@H]3O)c(=O)c2cc1F
[Q] Field: lower recorded EC50 (choose P or Q ) Bench note: the answer is the label of the chosen record.
[A] Q

----------
target: P2Y purinoceptor 2 (Homo sapiens, UniProt P41231); test: Agonist activity at human P2Y2 receptor expressed in human 1321N1 by FLIPR assay; assay type: functional
readout: EC50 (nM)

Worked cases, EC50 given:
compound=COc1ccc2ccn([C@@H]3O[C@H](COP(=O)(O)OP(=O)(O)OP(=O)(O)O)[C@@H](O)[C@H]3O)c(=O)c2c1 reading_unit=nM reported_value=26
compound=Cc1cccc2c(=O)n([C@@H]3O[C@H](COP(=O)(O)OP(=O)(O)OP(=O)(O)O)[C@@H](O)[C@H]3O)ccc12 reading_unit=nM reported_value=557
compound=O=c1c2ccccc2ccn1[C@@H]1O[C@H](COP(=O)(O)OP(=O)(O)OP(=O)(O)O)[C@@H](O)[C@H]1O reading_unit=nM reported_value=31

P = Cc1cn([C@@H]2O[C@H](COP(=O)(O)OP(=O)(O)OP(=O)(O)O)[C@@H](O)[C@H]2O)c(=O)c2ccccc12
Q = O=c1c2cc(Cl)c(Cl)cc2ccn1[C@@H]1O[C@H](COP(=O)(O)OP(=O)(O)OP(=O)(O)O)[C@@H](O)[C@H]1O
[Q] Field: lower recorded EC50 (choose P or Q ) Bench note: the answer is the label of the chosen record.
[A] Q

P = O=c1c2cccnc2ccn1[C@@H]1O[C@H](COP(=O)(O)OP(=O)(O)OP(=O)(O)O)[C@@H](O)[C@H]1O
Q = O=c1ccn([C@@H]2O[C@H](COP(=O)(O)OP(=O)(O)OP(=O)(O)O)[C@@H](O)[C@H]2O)c(=O)[nH]1 [URIDINE TRIPHOSPHATE]
[Q] Could you please tell me which of these two has the higher EC50: P or Q ? Bench note: the answer is the label of the chosen record.
[A] P
(P: 35 nM, Q: 7 nM)
